System: SW872 (Other Solid Carcinomas);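 also: after 72 h of two-drug dosing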
Experiment: Bliss excess, mean over the matrix (fraction); higher = more synergy
Assign Bliss excess to each entry below.
One number for each entry.

Dear colleague, please send me the reported Bliss excess for CN(C)CCCOc1ccc(-c2ccc3ncc4c(c3c2)n(C2CCOCC2)c(=O)n4C)cn1 [AZD0156] + C=CCn1c(=O)c2cnc(Nc3ccc(N4CCN(C)CC4)cc3)nc2n1-c1cccc(C(C)(C)O)n1 [AZD1775] (first compound max 1 µM, partner max 1 µM) when you can. -0.0183

Answer with the recorded Bliss excess for the compound listed here: O=C(c1cc(Cc2n[nH]c(=O)c3ccccc23)ccc1F)N1CCN(C(=O)C2CC2)CC1 [Olaparib] + CC1(C)CCC(CN2CCN(c3ccc(C(=O)NS(=O)(=O)c4ccc(NCC5CCOCC5)c([N+](=O)[O-])c4)c(Oc4cnc5[nH]ccc5c4)c3)CC2)=C(c2ccc(Cl)cc2)C1 [Venetoclax] (first compound max 10 µM, 7x7, partner max 1 µM) -0.023

Supply Bliss excess value. Item: Cc1c2c(nn1C)CSCc1cc(n(C)n1)CSc1cc(c3ccccc3c1)OCCCc1c(C(=O)O)n(C)c3c-2c(Cl)ccc13 [AZD5991] + CC1(C)CCC(CN2CCN(c3ccc(C(=O)NS(=O)(=O)c4ccc(NCC5CCOCC5)c([N+](=O)[O-])c4)c(Oc4cnc5[nH]ccc5c4)c3)CC2)=C(c2ccc(Cl)cc2)C1 [Venetoclax] (first compound max 1 µM, 7x7, partner max 1 µM) -0.0443

Using known records, supply Bliss excess for CC1(C)CCC(CN2CCN(c3ccc(C(=O)NS(=O)(=O)c4ccc(NCC5CCOCC5)c([N+](=O)[O-])c4)c(Oc4cnc5[nH]ccc5c4)c3)CC2)=C(c2ccc(Cl)cc2)C1 [Venetoclax] + CN(C)CCCOc1ccc(-c2ccc3ncc4c(c3c2)n(C2CCOCC2)c(=O)n4C)cn1 [AZD0156] (first compound max 1 µM, 7x7, partner max 1 µM) 0.0025

Tell me Bliss excess reported for CN(CCO)CC[C@H](CSc1ccccc1)Nc1ccc(S(=O)(=O)NC(=O)c2ccc(N3CCC([C@@H](O)c4ccccc4-c4ccc(Cl)cc4)CC3)cc2)cc1S(=O)(=O)C(F)(F)F [AZD4320] + CC(=O)O[C@H]1C(=O)[C@@]2(C)[C@H]([C@H](OC(=O)c3ccccc3)[C@]3(O)C[C@H](OC(=O)[C@H](O)[C@@H](NC(=O)c4ccccc4)c4ccccc4)C(C)=C1C3(C)C)[C@]1(OC(C)=O)CO[C@@H]1C[C@@H]2O [Paclitaxel] (first compound max 1 µM, 7x7, partner max 3 µM) -0.0047

Next item in the queue.
Specify measured Bliss excess for CC1(C)CCC(CN2CCN(c3ccc(C(=O)NS(=O)(=O)c4ccc(NCC5CCOCC5)c([N+](=O)[O-])c4)c(Oc4cnc5[nH]ccc5c4)c3)CC2)=C(c2ccc(Cl)cc2)C1 [Venetoclax] + C[C@@H](Nc1cc(F)cc(F)c1)c1cc(C(=O)N(C)C)cc2c(=O)cc(N3CCOCC3)oc12 [AZD8186] (first compound max 1 µM, 7x7, partner max 3 µM) . -0.0247

----------
Test system: OE33 (Esophageal Adenocarcinoma)
Test: combination Emax (second highest fraction inhibited in the dose matrix, 72 h); higher = more inhibition; extreme values may be limits of the assay
Think of 0.6 as a floor: if combination Emax stands on it or above, it is True; beneath it, False.

Solved entries:
Exam item: decide whether the reported combination Emax for CC1(C)CCC(CN2CCN(c3ccc(C(=O)NS(=O)(=O)c4ccc(NCC5CCOCC5)c([N+](=O)[O-])c4)c(Oc4cnc5[nH]ccc5c4)c3)CC2)=C(c2ccc(Cl)cc2)C1 [Venetoclax] + C[C@@H](Nc1cc(F)cc(F)c1)c1cc(C(=O)N(C)C)cc2c(=O)cc(N3CCOCC3)oc12 [AZD8186] (first compound max 1 µM, 7x7, partner max 3 µM) is at least 0.6. False

# check: combination Emax of CN(CCO)CC[C@H](CSc1ccccc1)Nc1ccc(S(=O)(=O)NC(=O)c2ccc(N3CCC([C@@H](O)c4ccccc4-c4ccc(Cl)cc4)CC3)cc2)cc1S(=O)(=O)C(F)(F)F [AZD4320] + C1CN(CCC1(C(=O)N[C@@H](CCO)C2=CC=C(C=C2)Cl)N)C3=NC=NC4=C3C=CN4 [Capivasertib] (first compound max 1 µM, 7x7, partner max 3 µM) is greater than or equal to 0.6 False

Next:
Answer whether combination Emax of Cc1nc(-c2cn3c(n2)-c2ccc(-c4cnn(C(C)(C)C(N)=O)c4)cc2OCC3)n(C(C)C)n1 [Taselisib] + O=C(Nc1ccc2[nH]nc(-c3ccncc3)c2c1)[C@@H]1CCN(CC(=O)N2CCN(c3ccc(-c4ncccn4)cc3)CC2)C1 [SCH772984] (first compound max 10 µM, 7x7, partner max 5 µM) is greater than or equal to 0.6. True

Determine whether this molecule has combination Emax no lower than 0.6: Cc1c2c(nn1C)CSCc1cc(n(C)n1)CSc1cc(c3ccccc3c1)OCCCc1c(C(=O)O)n(C)c3c-2c(Cl)ccc13 [AZD5991] + C=CCn1c(=O)c2cnc(Nc3ccc(N4CCN(C)CC4)cc3)nc2n1-c1cccc(C(C)(C)O)n1 [AZD1775] (first compound max 1 µM, partner max 1 µM) False

Say whether CC1(C)CCC(CN2CCN(c3ccc(C(=O)NS(=O)(=O)c4ccc(NCC5CCOCC5)c([N+](=O)[O-])c4)c(Oc4cnc5[nH]ccc5c4)c3)CC2)=C(c2ccc(Cl)cc2)C1 [Venetoclax] + C=CCn1c(=O)c2cnc(Nc3ccc(N4CCN(C)CC4)cc3)nc2n1-c1cccc(C(C)(C)O)n1 [AZD1775] (first compound max 1 µM, partner max 1 µM) shows combination Emax of 0.6 or more. True

Kindly determine if combination Emax recorded for N#Cc1cnc(Nc2cc(NC[C@H]3CNCCO3)c(C(F)(F)F)cn2)cn1 [SRA737] + CCc1c2c(nc3ccc(O)cc13)-c1cc3c(c(=O)n1C2)COC(=O)[C@]3(O)CC [SN-38] (first compound max 10 µM, 7x7, partner max 0.3 µM) is above or exactly 0.6. True
